- experiment notes: Photolysis of the compound assessed as half life at 30 degC by 250 W sun lamp
- Format: physicochemical
Please note: yes applies when half-life is 2 h or greater, and no applies otherwise.

{"compound": "O=[N+]([O-])/C=C1\\SCCN1Cc1ccc(Cl)nc1", "label": "no"}
{"compound": "O=[N+]([O-])/C=C1\\NCCN1Cc1ccc(Cl)nc1", "label": "no"}
{"compound": "O=[N+]([O-])/N=C1\\NCCCN1Cc1ccc(Cl)nc1", "label": "yes"}
{"compound": "N#C/N=C1\\NCCN1Cc1ccc(Cl)nc1", "label": "yes"}
{"compound": "O=[N+]([O-])/N=C1\\NCCN1Cc1ccc(Cl)nc1 [IMIDACLOPRID]", "label": "yes"}
{"compound": "O=[N+]([O-])C=C1NCCCS1", "label": "no"}
